Every entry's value here was drawn from ChEMBL document CHEMBL3885861.

Would you kindly list RBC for each of these compounds?
Species on record: Rattus norvegicus
ASSAY COMMENT: Open TG-GATES - Regimen: Single
Type: toxicity, organism-based, Sprague-Dawley
Design: regimen Single, gender Male, age 6 weeks
TEST SETTINGS: in vivo, po, 300 mg/kg, 24 h, tissue Blood, route gavage, dose level Middle
Give bare numbers, in x10_4/ul.

Batch of 3 compounds: report RBC for each.
1. COc1ccc2[nH]c([S+]([O-])Cc3ncc(C)c(OC)c3C)nc2c1 (centres undefined) [OMEPRAZOLE]
2. NC(N)=Nc1nc(CSCCC(N)=NS(N)(=O)=O)cs1 [FAMOTIDINE]
3. CCOC(=O)CCC(=O)O[C@H]1[C@H](O[C@@H]2[C@@H](C)[C@H](O[C@H]3C[C@@](C)(OC)[C@@H](O)[C@H](C)O3)[C@@H](C)C(=O)O[C@H](CC)[C@@](C)(O)[C@H](O)[C@@H](C)C(=O)[C@H](C)C[C@@]2(C)O)O[C@H](C)C[C@@H]1N(C)C [ERYTHROMYCIN ETHYLSUCCINATE]

Response:
[654.6, 596.2, 649.4]

Query: In one line, give reported RBC of the entry COC1=CC(=O)C[C@@H](C)[C@]12Oc1c(Cl)c(OC)cc(OC)c1C2=O [GRISEOFULVIN] .
Response: 621

====

Organism: Rattus norvegicus
ASSAY COMMENT: Open TG-GATES - Regimen: Single
Type: toxicity, organism-based, Sprague-Dawley
Parameters: regimen Single, gender Male, age 6 weeks
TEST SETTINGS: in vivo, po, 300 mg/kg, 9 h, tissue Blood, route gavage, dose level Middle
Can you tell me MCV for the items I'm about to list?
Answers are plain numbers, in fL.

Example cases with answers are listed next.
INSERT INTO results (compound, unit_tag, readout_value) VALUES
  ('CCOC(=O)CCC(=O)O[C@H]1[C@H](O[C@@H]2[C@@H](C)[C@H](O[C@H]3C[C@@](C)(OC)[C@@H](O)[C@H](C)O3)[C@@H](C)C(=O)O[C@H](CC)[C@@](C)(O)[C@H](O)[C@@H](C)C(=O)[C@H](C)C[C@@]2(C)O)O[C@H](C)C[C@@H]1N(C)C [ERYTHROMYCIN ETHYLSUCCINATE]', 'fL', 62.9),
  ('COC1=CC(=O)C[C@@H](C)[C@]12Oc1c(Cl)c(OC)cc(OC)c1C2=O', 'fL', 63.1),
  ('COc1ccc2[nH]c([S+]([O-])Cc3ncc(C)c(OC)c3C)nc2c1 (centres undefined)', 'fL', 62.4);

Next up:
Query: Find the measured MCV of NC(N)=Nc1nc(CSCCC(N)=NS(N)(=O)=O)cs1 and report it.
Response: 62.3

====

Organism: Rattus norvegicus
ASSAY COMMENT: Open TG-GATES - Regimen: Single
Assay type: toxicity, organism-based, Sprague-Dawley
Parameters: regimen Single, gender Male, age 6 weeks
TEST SETTINGS: in vivo, po, 10 mg/kg, 9 h, tissue Blood, route gavage, dose level Low
OBSERVATION TYPE: MCHC

A selection of reference data follows.
INSERT INTO assay_data (compound, observation_type, readout_value) VALUES
  ('CC(C)OC(=O)C(C)(C)Oc1ccc(C(=O)c2ccc(Cl)cc2)cc1 [FENOFIBRATE]', 'MCHC', '32.4%'),
  ('CN(C)CCCN1c2ccccc2CCc2ccc(Cl)cc21 [CLOMIPRAMINE]', 'MCHC', '32.2%'),
  ('CN(C)CCCN1c2ccccc2CCc2ccccc21 [IMIPRAMINE]', 'MCHC', '32.5%'),
  ('CN(C)CCN(Cc1cccs1)c1ccccn1', 'MCHC', '33.3%');

Here's the next entry for you.
Query: Provide only the value of recorded MCHC for CC1=C(/C=C/C(C)=C/C=C/C(C)=C/CO)C(C)(C)CCC1 [RETINOL]
Response: 34.4%
